# Test system: ABL1-phosphorylated
# Protocol conditions: concentration: 1 μM, replicates: in singlicate; n = 1;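 further: KINOMEscan kinase panel screen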
Recorded metric: %Inh (%)
Provide only the numeric value, understood in %.

Solved cases (4 shown):
CCCC(=O)Nc1n[nH]c2ncc(-c3cccc4ccccc34)cc12	27
Nc1nc(N)c2nc(-c3ccccc3)[nH]c2n1	15
Nc1ncnc2c1ncn2-c1cccc(F)c1	14
O=C(Nc1n[nH]c2nc(-c3ccccc3)c(Cl)cc12)C1CC1	57

With those in mind, consider the next compound.
Exercise: What does the record list as %Inh for Cl.c1ccc(Cn2cnc3cc(Nc4ncnc5ccccc45)ccc32)cc1 ?
Solution: 0

---

Reported %Inh is given for each of the following compounds.
# Test system: LIMK2
# Protocol conditions: concentration: 1 μM, replicates: in singlicate; n = 1
Provide only the numeric value, understood in %.

Solved cases (4 shown):
CCS(=O)c1ccc(-c2coc3ccc(-c4nnc(C)o4)cc23)cc1 (stereo not drawn)	0
COc1ccc(CNC(=O)NC2CCN(c3ccnc(Nc4ccc(F)cc4)n3)C2)cc1 (stereo not drawn)	29
Cl.c1ccc(Cn2cnc3cc(Nc4ncnc5ccccc45)ccc32)cc1	4
CC(C)(C)c1ccc(C(=O)Nc2cn3cc(-c4ccccc4)ccc3n2)cc1	0

Exercise: What does the record list as %Inh for COC(=O)c1c(-c2ccccc2)c2cc(Br)ccc2c(=O)n1Cc1ccc(S(C)(=O)=O)cc1 ?
Solution: 0

Exercise: What does the record list as %Inh for Nc1ncnc2c1ncn2-c1cccc(F)c1 ?
Solution: 22

Exercise: What does the record list as %Inh for COc1ccc(-n2cnc3c(N)ncnc32)cc1 ?
Solution: 0

Exercise: What does the record list as %Inh for O=C(NCCNc1ccnc(Nc2ccc(F)cc2)n1)Nc1ccc2c(c1)OCO2 ?
Solution: 0

Exercise: What does the record list as %Inh for Cc1ccc(-c2ccc3c(ccc4sc5c(c43)NC[C@@H](C)N=C5N(C)C)n2)cn1 ?
Solution: 0

---

# System: SRC
# Protocol conditions: concentration: 1 μM, replicates: in singlicate; n = 1
Recorded metric: %Inh (%)
Provide only the numeric value, understood in %.

COc1cc2ncn(-c3cc(OCc4ccncc4)c(C(N)=O)s3)c2cc1OC	0
CN1C(=O)C(Nc2ccccc2)=C(c2ccccc2)C1=O	0
CCn1c(-c2nonc2N)nc2ccccc21	0
Cc1nnc(-c2ccc(C)c(-c3ccc(C(=O)O)cc3)c2)o1	0
COc1cc(OC)cc(-c2cc3cnc(N)nc3nc2NC(=O)NC(C)(C)C)c1	0

Exercise: What does the record list as %Inh for COC(=O)c1c(-c2ccccc2)c2cc(Br)ccc2c(=O)n1Cc1ccc(S(C)(=O)=O)cc1 ?
Solution: 8

Exercise: What does the record list as %Inh for Nc1ncnc2c1ncn2-c1cccc2ccccc12 ?
Solution: 8

Exercise: What does the record list as %Inh for Cc1nn2c(=O)cc(N3CCOCC3)nc2n1Cc1cccc(Cl)c1Cl ?
Solution: 4

Exercise: What does the record list as %Inh for COc1cc(Nc2nccc(N3CCC(NC(=O)C4COc5ccccc5O4)C3)n2)cc(OC)c1OC (stereo not drawn) ?
Solution: 53

---

Reported %Inh is given for each of the following compounds.
# System: CDK11
# Construct: gene CDK19
# Protocol conditions: concentration: 1 μM, replicates: in singlicate; n = 1
Provide only the numeric value, understood in %.

Solved cases (5 shown):
FC(F)(F)c1ccc(-c2ncn(CCCN3CCOCC3)c2-c2ccncc2)cc1	0
COc1cccc(C2=C(Nc3cccc(C(=O)O)c3)C(=O)NC2=O)c1	0
COc1ccc(-c2cc3c(C)nc(N)nc3n([C@H]3CC[C@H](OCCO)CC3)c2=O)cn1	34
Nc1nccc2scc(-c3ccc4c(c3)CCN4C(=O)Cc3ccccc3)c12	57
O=C(Nc1ccc2c(c1)OCO2)NC1CCN(c2ccnc(NCc3ccc(F)cc3)n2)CC1	53

Exercise: What does the record list as %Inh for CCCC(=O)Nc1n[nH]c2ncc(-c3cccc4ccccc34)cc12 ?
Solution: 0

Exercise: What does the record list as %Inh for CCCNC(=O)Nc1ccc(Oc2ncnc3ccn(C)c23)cc1 ?
Solution: 3

Exercise: What does the record list as %Inh for CCC(=O)c1c(-c2ccccc2)c2cc(Cl)ccc2c(=O)n1Cc1cc(C(=O)NC2CC2)n(C)n1 ?
Solution: 3

Exercise: What does the record list as %Inh for CCc1nc(-c2cccc(C)c2)c(-c2ccncc2)s1 ?
Solution: 0

Exercise: What does the record list as %Inh for COc1ccc(CNC(=O)NC2CCN(c3ccnc(Nc4ccc(F)cc4)n3)C2)cc1 (centres unmarked) ?
Solution: 22

Exercise: What does the record list as %Inh for Nc1nc(-c2ccccc2F)c(-c2ccnc3ccccc23)s1 ?
Solution: 0
